assay system: CDC7/DBF4 (Cell division cycle 7-related protein kinase/Activator of S phase kinase) (Homo sapiens)
protocol notes: Inhibition of recombinant human Cdc7 (1 to 574 residues)/human N-terminal GST-tagged DBF4 (1 to 674 residues) expressed in baculovirus expression system using His-tagged MCM2 as substrate preincubated for 10 mins followed by ATP addition by HTRF assay
measure: log10 IC50 (log10 of the value in nM)
In our notation, the value equals log10 of IC50 in nM.

Recorded log10 IC50, per entry:
Cc1n[nH]c(C)c1-c1cc2c(s1)C(=O)NC(C)(C)N2C; 2.46
NC(=O)c1sc(-c2ccncc2)cc1N; 3.08
CC1(C)NC(=O)c2sc(-c3ccncc3)cc2N1; 1.41
CC1(CC(F)(F)F)NC(=O)c2sc(-c3ccncc3)cc2N1 (stereo unspecified); 0.43

Q) # log10 IC50 lookup, item CCc1n[nH]cc1-c1cc2c(s1)C(=O)NC(C)(C)N2C
A) 1.11

Q) # log10 IC50 lookup, item Cc1n[nH]cc1-c1cc2c(s1)C(=O)NC1(CCCCC1)N2
A) 0.18

====

assay system: Cell division cycle 7-related protein kinase (Homo sapiens)
protocol notes: Inhibition of Cdc7 in human HeLa cells assessed as reduction in MCM2 phosphorylation at ser40 residues after 7 hrs by Western blot analysis
measure: IC50

Recorded IC50, per entry:
Cc1n[nH]cc1-c1cc2c(s1)C(=O)NC(C)(CC(F)(F)F)N2C (centres undefined); 0.21 µM
Cc1n[nH]cc1-c1cc2c(s1)C(=O)N[C@]1(CC[C@](O)(c3ccc(F)cc3)CC1)N2; > 1 µM
Cc1n[nH]cc1-c1cc2c(s1)C(=O)NC1(CCCCC1)N2; 0.29 µM

Q) # IC50 lookup, item Cc1n[nH]cc1-c1cc2c(s1)C(=O)N[C@]1(CC[C@](O)(C3CCCCC3)CC1)N2
A) > 1 µM

====

assay system: UniProt Q13464
protocol notes: Inhibition of recombinant human N-terminal GST-tagged ROCK1 (1 to 477 residues) expressed in baculovirus expression system using biotin-STK substrate-2 as substrate preincubated for 5 mins followed by ATP addition after 2 hrs by TR-FRET assay
measure: pIC50
Expect pIC50 as a plain number equal to -log10 of the molar concentration.

Recorded pIC50, per entry:
CN1c2cc(-c3cn[nH]c3)sc2C(=O)NC1(C)C; 6.89
CCC1(C)NC(=O)c2sc(-c3ccncc3)cc2N1 (stereo not drawn); 7.44
CC1(C)NC(=O)c2sc(-c3ccncc3)cc2N1; 7.05
CN1C(=O)c2sc(-c3ccncc3)cc2NC1(C)C; 6.62
Cc1n[nH]c(C)c1-c1cc2c(s1)C(=O)NC(C)(C)N2C; 5.68
Cc1c(-c2cn[nH]c2)sc2c1N(C)C(C)(C)NC2=O; 7.36
CC(C)C1(C)NC(=O)c2sc(-c3ccncc3)cc2N1 (stereo not drawn); 7.46
O=C1NC2(CCCC2)Nc2cc(-c3ccncc3)sc21; 7.00

Q) # pIC50 lookup, item CC1(CC(F)(F)F)NC(=O)c2sc(-c3ccncc3)cc2N1 (stereo not drawn)
A) 7.51

Q) # pIC50 lookup, item O=C1NC2(CCCCC2)Nc2cc(-c3ccncc3)sc21
A) 7.28

Q) # pIC50 lookup, item CCCC1(C)NC(=O)c2sc(-c3ccncc3)cc2N1 (stereo not drawn)
A) 7.48

Q) # pIC50 lookup, item Cc1n[nH]cc1-c1cc2c(s1)C(=O)NC(C)(C)N2C
A) 7.27

Q) # pIC50 lookup, item Cc1n[nH]cc1-c1cc2c(s1)C(=O)N[C@]1(CC[C@@](O)(C3CCCCC3)CC1)N2
A) 6.46

Source: ChEMBL document CHEMBL4177537
